target: human TLR7 (Homo sapiens); construct: host or cells: HEK-Blue cells; test: TLR7 inhibition reporter assay (HEK-Blue cells, SEAP reporter, gardiquimod stimulation); assay type: cell-based; conditions: HEK-Blue cells overexpressing human TLR7, SEAP reporter, gardiquimod 7.5 μM; read-out: TLR7 IC50
Sequence (Q9NYK1 27-1049): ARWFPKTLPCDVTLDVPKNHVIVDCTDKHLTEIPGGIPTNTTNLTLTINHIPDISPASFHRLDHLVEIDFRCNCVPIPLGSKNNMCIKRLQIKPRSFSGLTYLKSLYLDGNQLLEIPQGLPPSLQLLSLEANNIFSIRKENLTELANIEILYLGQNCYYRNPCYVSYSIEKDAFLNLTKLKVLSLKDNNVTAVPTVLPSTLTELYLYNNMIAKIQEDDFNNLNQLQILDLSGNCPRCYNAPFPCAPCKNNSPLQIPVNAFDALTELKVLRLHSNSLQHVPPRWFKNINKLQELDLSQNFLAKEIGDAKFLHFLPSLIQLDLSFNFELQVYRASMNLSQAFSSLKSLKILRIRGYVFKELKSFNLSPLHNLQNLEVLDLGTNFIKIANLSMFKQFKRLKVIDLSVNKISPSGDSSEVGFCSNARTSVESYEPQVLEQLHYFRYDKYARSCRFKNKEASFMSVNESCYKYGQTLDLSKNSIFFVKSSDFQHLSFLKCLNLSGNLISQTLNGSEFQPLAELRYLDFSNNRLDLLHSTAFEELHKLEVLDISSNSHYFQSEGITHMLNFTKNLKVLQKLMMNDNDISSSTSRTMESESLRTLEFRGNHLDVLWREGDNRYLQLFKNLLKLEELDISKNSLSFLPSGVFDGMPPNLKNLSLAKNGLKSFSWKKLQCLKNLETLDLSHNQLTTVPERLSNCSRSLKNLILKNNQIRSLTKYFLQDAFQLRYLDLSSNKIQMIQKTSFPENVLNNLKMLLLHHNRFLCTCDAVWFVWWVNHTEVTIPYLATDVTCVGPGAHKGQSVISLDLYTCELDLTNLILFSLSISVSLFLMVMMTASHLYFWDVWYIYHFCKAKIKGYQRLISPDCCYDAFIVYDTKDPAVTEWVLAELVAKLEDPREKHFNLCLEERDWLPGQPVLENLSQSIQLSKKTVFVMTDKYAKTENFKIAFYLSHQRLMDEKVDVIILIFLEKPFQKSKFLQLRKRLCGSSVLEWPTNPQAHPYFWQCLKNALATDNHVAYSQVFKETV
Mark TRUE only when IC50 stays strictly below 5 nM. Values equal to the cut-off are FALSE.

Worked cases, answers included:
compound="Cc1cc2ncnn2cc1-c1[nH]c2sc(C3CCC(NCC(C)(C)O)CC3)nc2c1C(C)C (single isomer, unassigned) [Example 156]" assigned_class=TRUE
compound=Cc1cc(-c2[nH]c3sc(N4CCN(CC(C)(C)O)C[C@H]4C)nc3c2C(C)C)cn2ncnc12 assigned_class=FALSE
compound="Cc1c(-c2[nH]c3sc(C4CCC(N5CC6(CCOCC6)C5)CC4)nc3c2C(C)C)cn2ncnc2c1C (single isomer, unassigned) [Example 239]" assigned_class=TRUE
compound="CC(C)c1c(-c2cn(C)c3ncccc23)[nH]c2sc(C3CCC(NC45CC(C4)C5)CC3)nc12 (single isomer, unassigned) [Example 177]" assigned_class=TRUE
compound=Cc1cc(-c2[nH]c3sc(C4CCN(CC5(C)COC5)CC4)nc3c2C(C)C)cc(C)n1 assigned_class=FALSE

Query: A record lists COc1cc(-c2[nH]c3sc(C4CCC(NC(C)C)CC4)nc3c2C(C)C)cn2ncnc12 (single isomer, unassigned) [Example 79] . Is its IC50 below 5 nM?
Reply: TRUE

Query: # check: IC50 < 5 nM for Cc1c(-c2[nH]c3sc(C(=O)N4CCC(N(C)C)CC4)nc3c2C(C)C)cn2ncnc2c1C
Reply: TRUE

Query: Decide: IC50 of CNC(=O)CN1CCC(c2nc3c(C(C)C)c(-c4cn(C)c(=O)c(C)c4C)[nH]c3s2)CC1 strictly below 5 nM?
Reply: FALSE
